molecular target: Tyk2 (Homo sapiens (Human)); experiment: pSTAT4 Cell Assay (MSD, NK92 cells); type: cell-based; conditions: MSD
pIC50: −log10 of the molar value.
Measured property: pIC50

Exam item: Could you share what pIC50 was measured for CC(=O)Nc1cc(Nc2cc(C)nc(C(C)(F)F)n2)c(-c2nnc(C(C)(C)C)s2)cn1 , tested on Tyk2 (Homo sapiens (Human))?
Marked response: ≥ 8.00

Exam item: Repeat for the following compound: CC(=O)Nc1cc(Nc2cc(C)nc(C(C)(F)F)n2)c(-c2ccn3ncnc3n2)cn1
Marked response: ≥ 8.00

Exam item: Check CC(=O)Nc1cc(Nc2ccnc(C(C)(C)F)n2)c(-c2ccnc(C)n2)cn1 too.
Marked response: ≥ 8.00

Exam item: Next entry: COc1cccc(COc2cnc(NC(C)=O)cc2Nc2cc(C)nc(C(C)(F)F)n2)n1
Marked response: 7.00 to 8.00

Exam item: Another compound to look at: CCOc1cnc(NC(C)=O)cc1Nc1cc(-c2ccc(CC)nc2)nc(C(C)(F)F)n1
Marked response: ≥ 8.00

Exam item: Also check CC(=O)Nc1cc(Nc2cc(C)nc(C(C)(F)F)n2)c(OCc2ccc3c(c2)OCO3)cn1
Marked response: 7.00 to 8.00

Exam item: CC(=O)Nc1cc(Nc2cc(C)nc(C(C)(F)F)n2)c(O[C@H]2C[C@@H](F)C2)cn1 , same question.
Marked response: 7.00 to 8.00

Exam item: Ok, now CC(=O)Nc1cc(Nc2cc(C)nc(C(C)(F)F)n2)c(OC(C)C2CC2)cn1 (stereo not shown)
Marked response: 6.00 to 7.00

Exam item: How about this compound: CC(=O)Nc1cc(Nc2cc(C)nc(C(C)(F)F)n2)c(-c2cccc(C#N)n2)cn1
Marked response: ≥ 8.00

Exam item: Same thing, different compound: CC(=O)Nc1cc(Nc2cc(C)nc(C(C)(F)F)n2)c(OCCF)cn1
Marked response: 7.00 to 8.00

Exam item: Param item: COc1nccc(-c2cnc(NC(C)=O)cc2Nc2ccnc(C(C)(C)F)n2)n1
Marked response: ≥ 8.00

Exam item: Param item: CC(=O)Nc1cc(Nc2ccnc(C(C)(F)F)n2)c(-c2ncn(C)n2)cn1
Marked response: 6.00 to 7.00

Exam item: Let us now turn to [2H]C([2H])([2H])C([2H])([2H])Oc1cnc(NC(C)=O)cc1Nc1cc(CC)nc(C(C)(F)F)n1
Marked response: 7.00 to 8.00

Exam item: Follow-up entry: COCCOc1cnc(NC(C)=O)cc1Nc1cc(-c2cnn(C(C)C)c2)nc(C(C)(F)F)n1
Marked response: ≥ 8.00

Exam item: Next record, please: CCOc1cnc(NC(C)=O)cc1Nc1cc(C2CC2)nc(C(C)(F)F)n1
Marked response: 7.00 to 8.00

Exam item: Field entry: [2H]C([2H])([2H])N1CCn2nc(-c3cnc(NC(C)=O)cc3Nc3cc(C)nc(C(C)(F)F)n3)cc2C1
Marked response: ≥ 8.00

###

Provide the recorded pIC50 for the entries that follow.
target: Tyk2 (Homo sapiens (Human), UniProt P29597); assay: pSTAT4 Cell Assay (MSD, NK92 cells); format: cell-based; conditions: MSD
Sequence (P29597 whole entry): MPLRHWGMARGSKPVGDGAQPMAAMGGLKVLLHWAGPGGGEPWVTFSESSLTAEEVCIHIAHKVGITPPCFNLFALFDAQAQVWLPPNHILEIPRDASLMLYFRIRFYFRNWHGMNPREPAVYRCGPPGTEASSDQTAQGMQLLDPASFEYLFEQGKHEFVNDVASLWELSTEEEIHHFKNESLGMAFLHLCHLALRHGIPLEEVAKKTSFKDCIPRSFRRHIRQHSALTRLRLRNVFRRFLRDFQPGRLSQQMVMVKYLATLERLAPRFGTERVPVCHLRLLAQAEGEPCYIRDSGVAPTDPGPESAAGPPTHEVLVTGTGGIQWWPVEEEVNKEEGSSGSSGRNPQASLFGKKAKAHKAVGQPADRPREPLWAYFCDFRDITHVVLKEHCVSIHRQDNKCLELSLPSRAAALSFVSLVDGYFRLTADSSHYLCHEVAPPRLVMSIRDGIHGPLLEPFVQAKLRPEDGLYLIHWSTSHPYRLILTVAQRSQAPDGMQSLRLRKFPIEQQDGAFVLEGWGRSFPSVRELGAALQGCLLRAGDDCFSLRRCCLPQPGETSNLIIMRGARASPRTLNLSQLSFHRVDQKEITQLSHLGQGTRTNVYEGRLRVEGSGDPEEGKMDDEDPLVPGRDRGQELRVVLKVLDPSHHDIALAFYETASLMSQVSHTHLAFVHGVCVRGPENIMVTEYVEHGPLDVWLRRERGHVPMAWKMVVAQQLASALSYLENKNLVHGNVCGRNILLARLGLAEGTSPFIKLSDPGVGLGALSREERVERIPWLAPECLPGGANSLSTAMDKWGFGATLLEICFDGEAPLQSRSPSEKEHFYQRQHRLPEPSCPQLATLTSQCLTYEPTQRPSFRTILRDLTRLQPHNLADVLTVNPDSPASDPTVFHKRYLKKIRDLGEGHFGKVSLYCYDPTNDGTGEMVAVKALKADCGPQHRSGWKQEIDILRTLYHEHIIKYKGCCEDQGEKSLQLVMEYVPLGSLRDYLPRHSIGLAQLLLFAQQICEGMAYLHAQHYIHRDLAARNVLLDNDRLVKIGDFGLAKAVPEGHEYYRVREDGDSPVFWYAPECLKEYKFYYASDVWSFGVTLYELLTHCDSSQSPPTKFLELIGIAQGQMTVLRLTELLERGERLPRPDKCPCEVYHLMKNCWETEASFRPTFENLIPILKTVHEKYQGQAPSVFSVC
pIC50: −log10 of the molar value. Structures can show the parent of a compound that is named as a salt.

Exam item: Please give the measured pIC50 for this compound: COCc1cnc(-c2cnc(NC(C)=O)cc2Nc2cc(C)nc(C(C)(F)F)n2)s1
Marked response: ≥ 8.00

Exam item: // next record CC(=O)Nc1cc(Nc2ccnc(C(C)(F)F)n2)c(-c2cnc(C)cn2)cn1
Marked response: 7.00 to 8.00

Exam item: Note, next up: CCOc1cnc(NC(C)=O)cc1Nc1ccc(-c2ccn(C)n2)c(OC)n1
Marked response: ≤ 6.00

Exam item: Now this one: CC(=O)Nc1cc(Nc2cc(C)nc(C(C)(F)F)n2)c(OC[C@H]2COC(C)(C)O2)cn1
Marked response: ≥ 8.00

Exam item: Follow-up item: CC(=O)Nc1cc(Nc2cc(C)nc(C(C)(F)F)n2)c(-c2cc3n(n2)CCNC3)cn1
Marked response: ≥ 8.00

Exam item: # repeat for CC(=O)Nc1cc(Nc2cc(C)nc(C(C)(F)F)n2)c(OCC2(F)CCCOC2)cn1 (stereo not shown)
Marked response: ≥ 8.00

Exam item: Same question, COc1cnc(NC(C)=O)cc1Nc1cc(-c2cnn(CCN3CCOCC3)c2)nc(C(C)(F)F)n1 this time
Marked response: 7.00 to 8.00

Exam item: Try this compound too: CC(=O)Nc1cc(Nc2cc(C)nc(C(C)(F)F)n2)c(-c2cc3n(n2)CCN(C(C)=O)C3)cn1 [Example 222, trifluoroacetate]
Marked response: ≥ 8.00

Exam item: Also, COc1nc(-c2cnc(NC(C)=O)cc2Nc2cc(C)nc(C(C)(F)F)n2)ncc1C please.
Marked response: ≤ 6.00

Exam item: Now consider CC(=O)Nc1cc(Nc2cncc(C(C)(C)F)n2)c(-c2ncc(F)cn2)cn1 .
Marked response: 7.00 to 8.00

Exam item: Try this compound next: CC(=O)Nc1cc(Nc2cc(C)nc(C(C)(F)F)n2)c(OCC2COCC(C)(C)O2)cn1 (stereo not shown)
Marked response: ≥ 8.00

Exam item: Try the compound COC1(COc2cnc(NC(C)=O)cc2Nc2cc(C)nc(C(C)(F)F)n2)CCOCC1
Marked response: 7.00 to 8.00

Exam item: Try this compound too: COc1cc(COc2cnc(NC(C)=O)cc2Nc2cc(C)nc(C(C)(F)F)n2)ccn1
Marked response: 7.00 to 8.00

Exam item: Query CC(=O)Nc1cc(Nc2cc(OC3CC3)nc(C(C)(F)F)n2)c(O[C@H]2C[C@@H](F)C2)cn1 next
Marked response: ≥ 8.00

Exam item: Can you check CC(=O)Nc1cc(Nc2cc(C)nc(C(C)(F)F)n2)c(-c2cc(CN(C)C)ccn2)cn1 next?
Marked response: ≥ 8.00

Exam item: How about CC(=O)Nc1cc(Nc2cc(C)nc(C(C)(F)F)n2)c(-c2csc(N3CCOCC3)n2)cn1 ?
Marked response: ≥ 8.00

###

target: JAK2 (Homo sapiens (Human), UniProt O60674); assay: pSTAT5 Cell Assay (MSD, TF1 cells); type: cell-based; conditions: IL-3 stimulated
Sequence (O60674 whole entry): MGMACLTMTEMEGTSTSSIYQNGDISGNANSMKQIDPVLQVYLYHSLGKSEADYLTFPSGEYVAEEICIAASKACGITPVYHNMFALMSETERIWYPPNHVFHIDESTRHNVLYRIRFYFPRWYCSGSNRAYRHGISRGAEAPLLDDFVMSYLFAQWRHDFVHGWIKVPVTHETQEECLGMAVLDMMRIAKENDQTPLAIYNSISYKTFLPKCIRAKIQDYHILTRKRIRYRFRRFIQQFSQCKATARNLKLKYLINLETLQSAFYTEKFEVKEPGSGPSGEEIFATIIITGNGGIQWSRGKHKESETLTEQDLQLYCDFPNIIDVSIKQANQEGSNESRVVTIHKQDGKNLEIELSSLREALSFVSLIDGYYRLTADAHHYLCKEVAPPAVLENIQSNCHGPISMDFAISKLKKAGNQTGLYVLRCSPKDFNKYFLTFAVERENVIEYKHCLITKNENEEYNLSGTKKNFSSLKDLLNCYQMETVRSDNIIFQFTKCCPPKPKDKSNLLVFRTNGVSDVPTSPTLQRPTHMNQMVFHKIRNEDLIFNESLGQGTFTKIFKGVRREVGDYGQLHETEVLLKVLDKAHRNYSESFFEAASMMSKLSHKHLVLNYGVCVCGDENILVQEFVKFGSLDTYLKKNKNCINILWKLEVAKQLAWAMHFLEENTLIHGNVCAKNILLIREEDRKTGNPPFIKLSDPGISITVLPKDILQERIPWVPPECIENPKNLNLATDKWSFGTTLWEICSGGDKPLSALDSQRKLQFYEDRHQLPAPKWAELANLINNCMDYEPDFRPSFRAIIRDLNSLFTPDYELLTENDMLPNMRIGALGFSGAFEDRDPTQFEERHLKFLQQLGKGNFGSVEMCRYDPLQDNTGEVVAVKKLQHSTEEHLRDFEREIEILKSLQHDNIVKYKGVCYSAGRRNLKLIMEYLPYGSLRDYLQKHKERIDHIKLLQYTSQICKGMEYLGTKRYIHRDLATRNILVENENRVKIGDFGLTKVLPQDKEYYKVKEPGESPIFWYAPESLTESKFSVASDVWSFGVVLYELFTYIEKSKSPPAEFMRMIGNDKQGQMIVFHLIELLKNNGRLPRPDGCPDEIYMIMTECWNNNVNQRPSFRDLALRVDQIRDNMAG
Provide the reported IC50 of each item.

Exam item: Any idea what IC50 was measured for CC(=O)Nc1cc(Nc2ccnc(C(C)(F)F)n2)c(-c2ccc(OC(F)F)cn2)cn1 [Example 826] ?
Marked response: ≥ 1 µM

Exam item: // repeat for CCc1cc(Nc2cc(NC(C)=O)ncc2-c2cnc(COC)cn2)nc(C(C)(F)F)n1 [Example 836] and report
Marked response: ≥ 1 µM

Exam item: Similarly, COCc1cnc(-c2cnc(NC(C)=O)cc2Nc2cc(C)nc(C(C)(F)F)n2)cn1 [Example 834] ?
Marked response: ≥ 1 µM

###

target: Tyk2 (Homo sapiens (Human), UniProt P29597); assay: pSTAT4 Cell Assay (MSD, NK92 cells); type: cell-based; conditions: MSD
Would you kindly list IC50 for each of these compounds?

Exam item: Field request: IC50 | item: CCCc1cnc(NC(C)=O)cc1Nc1cc(C)nc(C(C)(F)F)n1
Marked response: ≥ 1000 nM

Exam item: // same read-out, input: CCc1cc(Nc2cc(NC(C)=O)ncc2OCCF)nc(C(C)(F)F)n1
Marked response: ≤ 10 nM

Exam item: Now try CCOc1cnc(NC(C)=O)cc1Nc1cc(-c2ccc(OC)nc2)nc(C(C)(F)F)n1 .
Marked response: 10 to 100 nM

Exam item: Input CC(=O)Nc1cc(Nc2cc(C)nc(C(C)(F)F)n2)c(OCC2(F)COC2)cn1
Marked response: 10 to 100 nM

Exam item: Could you do the same for COc1cc(COc2cnc(NC(C)=O)cc2Nc2cc(C)nc(C(C)(F)F)n2)on1 , please?
Marked response: 10 to 100 nM

Exam item: Param item: CC(=O)Nc1cc(Nc2ccnc(C(C)(F)F)n2)c(OC2CC2)cn1
Marked response: 100 to 1000 nM

Exam item: Subsequent entry: CC(=O)Nc1cc(Nc2cc(C)nc(C34CC(CO3)C4)n2)c(-c2ccn(C)n2)cn1
Marked response: 10 to 100 nM

Exam item: Same for CC(=O)Nc1cc(Nc2cc(C)nc(C(C)(F)F)n2)c(OCc2cc(C)no2)cn1
Marked response: 10 to 100 nM

###

molecular target: UniProtKB P29597; assay: pSTAT4 Cell Assay (MSD, NK92 cells); format: cell-based; conditions: MSD
pIC50: −log10 of the molar value.
Measured property: pIC50

Exam item: Name the reported pIC50 value associated with the compound CC(=O)Nc1cc(Nc2cc(C)nc(C(C)(F)F)n2)c(OC[C@H]2C[C@H]2F)cn1 (racemic) [Example 425]
Marked response: ≥ 8.00

Exam item: And the next one, CCOc1cnc(NC(C)=O)cc1Nc1cc(-c2cnn(C(F)F)c2)nc(C(C)(F)F)n1 [Example 303] ?
Marked response: 7.00 to 8.00

Exam item: Now the compound COc1cnc(NC(C)=O)cc1Nc1cc(-c2cn(C)nc2C(F)(F)F)nc(C(C)(F)F)n1 [Example 395]
Marked response: 6.00 to 7.00

Exam item: Would you mind doing CC(=O)Nc1cc(Nc2cc(C)nc(C(C)(F)F)n2)c(OCc2ncc(C3CC3)o2)cn1 [Example 342] as well?
Marked response: 6.00 to 7.00
